- experimental.system: T1, LIN7A, O14910
- T1 sequence (O14910 103-200, limits assumed, looked up): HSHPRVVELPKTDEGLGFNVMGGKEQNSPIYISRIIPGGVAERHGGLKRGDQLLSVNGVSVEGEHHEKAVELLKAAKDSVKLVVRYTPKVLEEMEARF
- procedure.text: holdup assay
- Design: key: below the threshold = too weak to quantify, mostly under pKd 3.1 to 4
- stated.conditions: plain residues with an end cap or a label only (N-terminal biotin on a linker: ttds)
property.name: pKd

binder | data.value
SSLQSLETSV [ATP2B4, P23634] | 4.04
PVRVCEETSL [OTULIN, Q96BN8] | 3.47
VDFPPKESSL [ACVR2A, P27037] | 3.24
RHTTSTETAV [HPV30-E6, P36809] | 3.8

src = paper PMC9482650
